assay: yeast display, Sf9 membrane polyspecificity reagent, FACS + sequencing; frameworks hold sequencing errors

SEQUENCE TEXT	polyreactivity (PSR sort gate)
QVQLVESGGGLVQAGGSLRLSCAASGSIFPYYTMGWYRQAPGKERELVAAITTSDSSTYYADSVKGRFTISRDNAKNTVYLQMNSLKPEDTAVYYCAARYSLYPYYAYDDAYRLYRLRGRDYWGQGTQVTVSS	low polyreactivity
QFQLEESVGGLVQAGGSLRLSCAASGFTFKSYAMGWYRQATVNVREFVARITYSGGGTYYADSVKGRFTISRDNAKNTVYLLMNSLKPEDTAVYYCARPFNRYLGLTRNGYTSDYWGQGTQVTVSS	high polyreactivity
QVQLVESGGGLVQAGGSLRLSCAASGFIFAEYAMGWYRQAPGKEREFVASITYSGGRTYYADSVKGRFTISRDNAKNTVYLQMNSLKPEDTAVYYCATARYRYHYYSWGQGTQVTVSS	high polyreactivity
QVQIVESGGGLVQAGGSLRLSCADSGSTRIYAMGWYRQAPGKERELVAAISWSGGRTYYADSVKGRFTISRDNAKNTVYLQMNSLKPEDTAVYYCAAKGSGRDYWGQGTQVTVSS	high polyreactivity
QVQLVESGGGLVQAGGSLRLSCDASGNTSSYYTMGWYRQAPGKERELGARISNRGTNTYYAESVKGRVTISRDNAKNTVYLQMNSLKPEDTAVYYCAALYWFYVYPFTEYDYWGQGTQVTVSS	low polyreactivity

---

test: yeast display, Sf9 membrane polyspecificity reagent, FACS + sequencing; frameworks hold sequencing errors
QUANTITY NAME: polyreactivity (PSR sort gate)

SEQUENCE TEXT	RESULT
QVQLVESGGGLVQAGGSLRLSCAASGSTFPVYAMGWYRQEPGKERELVAAITSGVSTNYADSVKGRFTISRDNAKNTVYLQMNSLKPEDTAVYYCAKDFGLLPIRDDYWGQGTQVTVSS	low polyreactivity
QVQLVESGGGLVQAGGSLRLSCAASGRTFGIYAMGWYRQAPGKERELVASISWSGGRTYYADSVKGRFTISRDNAKNTVYLQMNSLIPEDTAVYYCAAYGVYYPRSWQYFDWYGYWGQGTQVTVSS	high polyreactivity
QVQLVESGGGLVQAGGSLRLICAATGFTFLFYDMGWYRQAPGKERALVAASTSDGSTYYADSVKGRFTISRDNAKNTVYLQMNSLKPEDTAVYYCNADEPDEAYLYQSDYWGQGTQVTVSS	low polyreactivity
QVQLVESGGGLVQAGGSLRLSCAASGITFYRYAMGWYRPAPGKERELVAAISSRGGRTYYADSVKGRFTISRDNEKNTVYLQMNSLKPEDTGVYYCAKGGIVGSTLEYDYWGQGTQVTVSS	high polyreactivity
QVQLVESVGGLVQAGGSLRLSCAASGFIFSYYAMGGYRQAPGKERELVAAISKTGGNTYYADSVKGRFTISRDNAKNTVYLQMNSLKPEDSAVYYCNALRGDWRDMGYWGQGTQVTVSS	high polyreactivity
QVQLVESGGGLVQAGGSLRLSCAASGSTISYYAMGWYIQAPGKERELVAAISQTGGTTYYADSVKGRFTISRDNAKNTVYLQMNSLKPEDTAVYYCNAARPGGHYWGQGTQVTVSS	low polyreactivity
QVQLVESGGGLVQAGGSLRLSCAASGSTFFPYAMGWYRQAPGKERELVADITYSGASTYYADSVKGRFTISRDNAKNTVYLQMNSLKPEDTAVYYCAALVWYGYYSLGQGTQVTVSS	low polyreactivity
QVQLVESGGGLVQAGGSLRLSCAASGGIFPAYAMGWYRQAPGKERELVASISSSGGSTYYADSVKGRFTISRDNAKNTVYLQMNSLKPEDTAVYYCNVAQYLRARRPVDYWGQGTQVTVSS	high polyreactivity
QVQLVESGGGLVQAGGSLRLSCAASGRSFSPYAMGWYRQAPGKERELVAAISYDDGITYYADSVKGRFTISRDTAKNTVYLQMNSLKPEDTAVYYCAADSVTRPAGDYWGQGTQVTVSS	low polyreactivity
QVQLVESGGGLVQAGGSLRLSCAASGFIFRYNAMGWYRQAPGKERELVAAIDSGGSTYYADSVKGRFTISRDNAKNTVYLQMNSLKPEDTAVYYCNAVHEASYAGVDYWGQGTQVTVSS	low polyreactivity
QVQLVESGGGLVQAGGSLRLSCAASGFIFDRYAMGWYRQAPGKERELVAAISWTGGSTYYADSVKGRFTISRDNAKNTVYLQMNSLKPEDTAVYYCAVEYSLVYWSGVVDLGYWGQGTQVTVSS	high polyreactivity
